Test system: OVCAR-3 ovarian
method: NCI tumour cell line growth inhibition, 48 h; in the data active = GI50 below about 0.43 µM; inactive = the rest
Pick one: TRUE for active, FALSE for inactive

> print(dat)
                                   compound    cat
1  O=C(/C=C\Sc1nccc(C(F)(F)F)n1)c1ccc(Br)cc1  FALSE
2  COC(=O)c1c2c(c(C)[n+]([O-])c1C)C(=O)C(NCc1ccc(F)c(F)c1)=CC2=O   TRUE
3  C=C[C@]1(C)C=C2C(=O)[C@@]3(O)OC(=O)[C@@]4(CCCC(C)(C)[C@H]34)[C@@]2(O)CC1  FALSE
4  COC(=O)Nc1nc2ccc(Oc3ccc(NC(=O)Nc4cccc(Cl)c4)cc3)cc2[nH]1  FALSE
5  O=C1/C(=C/C(Cl)=C/c2ccccc2)SC(=S)N1CCc1ccc(O)cc1  FALSE

stdin: Per the assay record, what outcome was assigned to Cn1cc(C2=C(c3c4n(c5ccccc35)CCC(CN)CC4)C(=O)NC2=O)c2ccccc21 (stereo not drawn) ?
stdout: FALSE

stdin: Follow-up item: CCOC(=O)c1c(Cl)c2c(n1Cc1cc(OC)cc(OC)c1)-c1oncc1CCC2
stdout: TRUE

stdin: Follow-up item: COC(=O)[C@@H](C)C[C@H](Cc1ccccc1)NC(=O)c1csc([C@@H](C[C@H](C(C)C)N(C)C(=O)[C@@H](NC(=O)[C@H]2CCCCN2C)C(C)C)OC(C)=O)n1
stdout: TRUE
